target-or-test-system: human CD33 V257A (human, UniProt P20138 18-364)
Sequence (P20138 18-364 V257A limits assumed): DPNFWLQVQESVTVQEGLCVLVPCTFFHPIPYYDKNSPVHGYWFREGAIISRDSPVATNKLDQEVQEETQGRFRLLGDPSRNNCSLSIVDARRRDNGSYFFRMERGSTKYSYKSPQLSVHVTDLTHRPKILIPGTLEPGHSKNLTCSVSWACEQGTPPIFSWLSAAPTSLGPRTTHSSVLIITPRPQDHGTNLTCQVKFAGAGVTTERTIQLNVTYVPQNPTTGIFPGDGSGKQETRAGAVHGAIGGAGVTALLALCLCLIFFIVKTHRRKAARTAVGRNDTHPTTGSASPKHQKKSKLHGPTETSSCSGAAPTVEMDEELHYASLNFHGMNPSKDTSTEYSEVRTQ
experiment-notes: alanine scan, flow cytometry, HEK293-T;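 further: antibody binding to each alanine-substituted CD33 mutant expressed transiently in HEK293-T, read as fluorescence minus background, mean of duplicates, relative to wild-type CD33 set as 100%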
Parameter: Mean % WT Binding. Scope: all listed entries.

Sample answers from the record:
[
  {
    "binder": "Refmab #2 (antibody, V domains shown, The alanine scan used IgG or Fab) VH: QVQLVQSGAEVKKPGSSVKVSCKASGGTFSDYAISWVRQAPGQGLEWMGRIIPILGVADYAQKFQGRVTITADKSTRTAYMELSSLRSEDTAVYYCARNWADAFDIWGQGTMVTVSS VL: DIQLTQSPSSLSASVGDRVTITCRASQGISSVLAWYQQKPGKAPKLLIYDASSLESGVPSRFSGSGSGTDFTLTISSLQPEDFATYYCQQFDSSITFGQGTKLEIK",
    "Mean % WT Binding": "108 % WT binding"
  },
  {
    "binder": "Refmab #3 (antibody, V domains shown, The alanine scan used IgG or Fab) VH: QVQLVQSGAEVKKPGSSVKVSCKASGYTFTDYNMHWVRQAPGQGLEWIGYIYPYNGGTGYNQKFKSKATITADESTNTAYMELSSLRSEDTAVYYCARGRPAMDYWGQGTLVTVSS VL: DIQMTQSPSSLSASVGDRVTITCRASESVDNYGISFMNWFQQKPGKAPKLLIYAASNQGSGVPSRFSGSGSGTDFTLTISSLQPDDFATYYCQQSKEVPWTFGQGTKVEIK",
    "Mean % WT Binding": "89 % WT binding"
  },
  {
    "binder": "Refmab #1 (antibody, V domains shown, The alanine scan used IgG or Fab; also called hP67.6) VH: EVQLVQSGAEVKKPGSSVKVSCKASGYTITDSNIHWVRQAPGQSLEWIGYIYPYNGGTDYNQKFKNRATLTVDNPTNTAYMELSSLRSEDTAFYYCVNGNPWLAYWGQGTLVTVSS VL: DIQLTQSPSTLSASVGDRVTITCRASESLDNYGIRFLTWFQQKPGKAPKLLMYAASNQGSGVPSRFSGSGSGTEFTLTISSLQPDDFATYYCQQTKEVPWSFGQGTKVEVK",
    "Mean % WT Binding": "102 % WT binding"
  }
]

Field: next binder
### Prompt Quick check: Mean % WT Binding of Refmab #4 (antibody, V domains shown, The alanine scan used IgG or Fab) VH: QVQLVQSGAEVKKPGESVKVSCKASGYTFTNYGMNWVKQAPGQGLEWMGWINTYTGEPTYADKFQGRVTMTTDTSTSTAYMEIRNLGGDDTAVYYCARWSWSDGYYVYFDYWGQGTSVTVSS VL: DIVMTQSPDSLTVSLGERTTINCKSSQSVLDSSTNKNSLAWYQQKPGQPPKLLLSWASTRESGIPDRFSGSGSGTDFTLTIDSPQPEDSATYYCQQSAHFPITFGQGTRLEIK ?
### Response 110 % WT binding
